# credit: patent US9790169B2

Each item that follows carries a reported IC50.
target: human IDO1 (Homo sapiens); assay: Assessment of human IDO-1 inhibitory activity in HEK cells (human IDO1/HEK293 cells, kynurenine read-out with Ehrlich reagent, absorbance 490 nm); type: cell-based; design: expressed in transfected cells; settings: HEK Human IDO-1 cellular assay

Compound | Reported Endpoint | Result
CCC(CC(=O)O)c1ccc(N2C[C@@H]3C[C@H]2CN3C(=O)OC(C)(C)C)c(Nc2ccccc2)c1 (single isomer, unassigned) | IC50 | < 50 nM
CCN(c1ccc(C(C)(C)CC(=O)O)cc1Nc1cnc(OCC2CC2)nc1)C1CCOCC1 | IC50 | < 5 nM
CCC(CC(=O)O)c1ccc(N(CC(C)C)C2CCCCC2)c(NC(=O)Cc2ccc(Cl)cc2F)c1 (single isomer, unassigned) [Example 1096 E2] | IC50 | < 5 nM
CCN(c1ccc(C(C)(C)CC(=O)O)cc1Nc1ccc(C#N)cc1)C1CCOCC1 | IC50 | < 5 nM
CCC(CC(=O)O)c1ccc(N2CCC[C@H]2C(C)(C)F)c(NC(=O)Nc2ccc(C)cc2)c1 (single isomer, unassigned) | IC50 | > 50 nM
CCOc1ccc(NC(=O)Nc2cc(C(C)CC(=O)O)ccc2N(CC(C)C)C2CCOCC2)cc1 (single isomer, unassigned) [Example 963] | IC50 | > 50 nM

// below: IC50 requested for another compound
Record summary for CC[C@@H](CC(=O)O)c1ccc(N(CC(C)(C)O)C2CCCCC2)c(Nc2ccc(C#N)cc2)c1 (single isomer, unassigned) : reported IC50 = < 5 nM

====

target: human IDO1 (Homo sapiens, UniProt P14902); experiment: Assessment of human IDO-1 inhibitory activity in HEK cells (human IDO1/HEK293 cells, kynurenine read-out with Ehrlich reagent, absorbance 490 nm); assay type: cell-based; design: expressed in transfected cells; conditions: HEK Human IDO-1 cellular assay
Sequence (P14902 whole entry): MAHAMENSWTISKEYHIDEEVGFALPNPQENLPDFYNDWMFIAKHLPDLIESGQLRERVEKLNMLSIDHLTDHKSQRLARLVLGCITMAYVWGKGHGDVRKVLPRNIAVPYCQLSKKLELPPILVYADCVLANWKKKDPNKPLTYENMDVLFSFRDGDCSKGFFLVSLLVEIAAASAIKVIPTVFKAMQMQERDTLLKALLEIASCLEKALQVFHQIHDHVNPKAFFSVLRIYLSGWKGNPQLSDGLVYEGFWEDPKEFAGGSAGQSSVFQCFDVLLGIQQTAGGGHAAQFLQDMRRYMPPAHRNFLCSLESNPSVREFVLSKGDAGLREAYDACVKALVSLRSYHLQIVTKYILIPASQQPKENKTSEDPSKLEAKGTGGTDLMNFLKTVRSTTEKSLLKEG
Reported Endpoint: IC50

Study these solved cases before continuing.
Compound | Result
CC(C)CN(c1ccc(C(C)CC(=O)O)cc1NC(=O)Nc1cncnc1)C1CCOCC1 (single isomer, unassigned) | > 50 nM
CC[C@@H](CC(=O)O)c1ccc(N2CCOC[C@@H]2C(C)C)c(NC(=O)Nc2ccc(Cl)cc2F)c1 (single isomer, unassigned) | < 50 nM
CCN(c1ccc([C@@H](COC)CC(=O)O)cc1NC(=O)Nc1cnc(C)nc1)C1CCOCC1 (single isomer, unassigned) | > 50 nM
CC[C@@H](CC(=O)O)c1ccc(N(CC(C)(C)O)C2CCOCC2)c(NC(=O)Nc2ccc(C)cc2)c1 (single isomer, unassigned) | > 50 nM
CCOc1ccc(NC(=O)Nc2cc(C(COC)CC(=O)O)cc(F)c2N(CC(C)C)CC(C)C)cc1 (single isomer, unassigned) | < 50 nM

// below: IC50 requested for another compound
Record summary for CCC(CC(=O)O)c1ccc(N2CCC[C@@H]2COC)c(NC(=O)Cc2ccc(C)cc2)c1 (mixture of isomers) [Example 1143] : reported IC50 = > 50 nM

====

Each item that follows carries a reported IC50.
biological target: human IDO1 (Homo sapiens, UniProt P14902); test: Assessment of human IDO-1 inhibitory activity in Hela cells (Interferon-gamma stimulated HeLa cells, Ehrlich reagent, absorbance 490 nm); assay type: cell-based; set-up: endogenous in cells; host or cells: HeLa cells stimulated with interferon-gamma; conditions: Hela Human IDO-1 cellular assay

Compound | IC50
COCC(CC(=O)O)c1ccc(N2CCOC(C)(C)C2)c(Nc2ccc(Cl)cc2)c1 (single isomer, unassigned) [Example 1315 E1] | > 50 nM
CCN(c1ccc([C@H](CC(=O)O)C(F)(F)F)cc1NC(=O)Nc1ccc(C)cc1)C1CCOCC1 (single isomer, unassigned) | < 50 nM
CCN(c1ccc(C(CC)(CC)CC(=O)O)cc1Nc1ccc(C#N)cc1)C1CCOCC1 | < 5 nM
CCOc1ncc(Nc2cc(C(C)(C)CC(=O)O)ccc2N(CCOC)C2CCOCC2)cn1 | > 50 nM

Record summary for `COCCN(c1ccc(C(C)(C)CC(=O)O)cc1Nc1ccc(C#N)cc1)C1CCOCC1` : reported IC50 = < 5 nM

Record summary for CCC(CC(=O)O)c1ccc(N2C[C@@H]3C[C@H]2CN3C(=O)OC(C)(C)C)c(Nc2ccc(C#N)cc2)c1 (single isomer, unassigned) [Example 443 Diastereomer 2] : reported IC50 = < 50 nM

Record summary for CCc1ccc(Nc2cc(C(CC)CC(=O)O)ccc2N2CCOC[C@H]2C(C)C)cc1 (single isomer, unassigned) : reported IC50 = < 50 nM

Record summary for CCC(CC(=O)O)c1ccc(N2CC(O)(c3ccc(F)cc3)C2)c(Nc2ccc(Cl)cc2)c1 (single isomer, unassigned) [Example 1253 E1] : reported IC50 = < 50 nM

Record summary for COCC(CC(=O)O)c1ccc(N(C)C2CCOCC2)c(Nc2ccc(C#N)cc2F)c1 (single isomer, unassigned) : reported IC50 = < 50 nM

Record summary for CCN(c1ccc(C(C)CC(=O)O)cc1Nc1ccc2nc(C)sc2c1)C1CCOCC1 (single isomer, unassigned) : reported IC50 = < 50 nM

Record summary for CCOc1ncc(Nc2cc([C@@H](CC)CC(C)(C)O)ccc2N(CC)C2CCOCC2)cn1 (single isomer, unassigned) : reported IC50 = > 50 nM

Record summary for CCN(c1ccc(C(C)CC(=O)O)cc1Nc1ccc(C#N)cc1)C1CCOCC1 (single isomer, unassigned) : reported IC50 = < 5 nM

Record summary for `CCCN(c1ccc(C(C)(C)CC(=O)O)cc1Nc1cnc(OCC)nc1)C1CCOCC1` : reported IC50 = < 50 nM

====

Biological target: human IDO1 (Homo sapiens, UniProt P14902)
Assay: Assessment of human IDO-1 inhibitory activity in Hela cells (Interferon-gamma stimulated HeLa cells, Ehrlich reagent, absorbance 490 nm)
Format: cell-based
Parameters: endogenous in cells; host or cells: HeLa cells stimulated with interferon-gamma
Conditions: Hela Human IDO-1 cellular assay
Procedure: Exemplary compounds were tested for inhibition of IDO activity. Assessment of Human IDO-1 Inhibitory Activity in Hela Cells HeLa cells were seeded at 20,000 cells per 30 μL per well with RPMI/phenol red free media containing 10% FBS in a 384-well tissue culture plate (black with clear bottoms). […] Compound treatment was stopped by adding 5 μl trichloroacetic acid to a final concentration of 3%. […] Absorbance at 490 nm was measured on Envision plate reader. […]
Reported Endpoint: IC50

Study these solved cases before continuing.
Compound | Result
COCC(CC(=O)O)c1ccc(N2CCOC(C)C2)c(Nc2ccc(C#N)cc2)c1 (single isomer, unassigned) | > 50 nM
CCCN(c1ccc([C@H](COC)CC(=O)O)cc1Nc1ccc(F)cc1)C1CCOCC1 (single isomer, unassigned) | < 50 nM
CCN(c1cc(F)c([C@@H](COC)CC(=O)O)cc1NC(=O)Nc1ccc(Cl)cc1F)C1CCOCC1 (single isomer, unassigned) | < 5 nM
CCC(CC(=O)O)c1ccc(N2CCOCC2)c(Nc2ccc(C#N)cc2)c1 (single isomer, unassigned) [Example 6 Enantiomer 1] | > 50 nM
COCC(CC(=O)O)c1ccc(N(CC2CC2)C2CCOCC2)c(Nc2ccc(C(N)=O)nc2)c1 (single isomer, unassigned) | > 50 nM

// below: IC50 requested for another compound
The reported IC50 value, human IDO1 (Homo sapiens, UniProt P14902), for CCOc1ncc(Nc2cc(C(CC)CC(=O)O)ccc2N2CC(O)(c3ccc(F)cc3)C2)cn1 (single isomer, unassigned) reads > 50 nM

====

Each item that follows carries a reported pIC50.
molecular target: human IDO1 (Homo sapiens); test: Assessment of human IDO-1 inhibitory activity in Hela cells (Interferon-gamma stimulated HeLa cells, Ehrlich reagent, absorbance 490 nm); format: cell-based; parameters: endogenous in cells; host or cells: HeLa cells stimulated with interferon-gamma; conditions: Hela Human IDO-1 cellular assay
pIC50: −log10 of the molar value.

Compound | pIC50
CCCN(c1ccc([C@H](CC)CC(=O)O)cc1Nc1ccc(F)cc1)C1CCOCC1 (single isomer, unassigned) | > 8.30
CCN(c1c(F)cc(C(COC)CC(=O)O)cc1NC(=O)Nc1ccc(Cl)cc1F)C1CCOCC1 (single isomer, unassigned) | < 7.30
CCOc1ncc(Nc2cc([C@H](CC)Cc3nnc[nH]3)ccc2N(CC)C2CCOCC2)cn1 | > 7.30

// below: pIC50 requested for another compound
The reported pIC50 value, human IDO1 (Homo sapiens), for CCN(c1ccc([C@@H](COC)CC(=O)O)cc1Nc1ncc(F)cc1F)C1CCOCC1 (single isomer, unassigned) reads > 7.30

====

Each item that follows carries a reported IC50.
molecular target: UniProtKB P14902; experiment: Assessment of human IDO-1 inhibitory activity in HEK cells (human IDO1/HEK293 cells, kynurenine read-out with Ehrlich reagent, absorbance 490 nm); type: cell-based; design: expressed in transfected cells; conditions: HEK Human IDO-1 cellular assay

Study these solved cases before continuing.
Compound | System Under Test | Result
COCC(CC(=O)O)c1ccc(N(CC2CC2)C2CCOCC2)c(Nc2ccc(C#N)c(C)c2)c1 (single isomer, unassigned) [Example 692] | UniProtKB P14902 | < 50 nM
CCOc1ccc(C(=O)Nc2cc(C(CC)CC(=O)O)ccc2N(CC(C)C)C2CCCCC2)cc1 (racemic) [Example 1073] | UniProtKB P14902 | > 50 nM
CCC(CC(=O)O)c1ccc(N(CCC(C)C)C2CCCCC2)c(NC(=O)Cc2ccc(Cl)cc2F)c1 (racemic) [Example 1088] | UniProtKB P14902 | < 50 nM
COCC(CC(=O)O)c1ccc(N(CC2CC2)C2CCOCC2)c(Nc2ccc(C#N)c(C)c2)c1 (single isomer, unassigned) [Example 686] | UniProtKB P14902 | < 5 nM
CC(C)C(CC(=O)O)c1ccc(N(C)C(C)(C)C)c(Nc2nc3ccccc3o2)c1 (single isomer, unassigned) [1008-1] | UniProtKB P14902 | > 50 nM
CCc1cnc(Nc2cc([C@H](CC)CC(=O)O)ccc2N(CC)C2CCCCC2)nc1 (single isomer, unassigned) [Example 286] | UniProtKB P14902 | > 50 nM
CCC(CC(=O)O)c1ccc(N2CCC[C@@H]2C(C)(C)O)c(Nc2ccc(Cl)cc2)c1 (single isomer, unassigned) [Example 773] | UniProtKB P14902 | < 50 nM
CC[C@@H](CC(=O)O)c1ccc(N(CC)C2CCCCC2)c(Nc2ccc(OC(F)F)cc2)c1 (single isomer, unassigned) [Example 284] | UniProtKB P14902 | < 5 nM
CCC(CC(=O)O)c1ccc(N2CCC[C@H]2C(C)(C)F)c(Nc2ccc3nc(C)sc3c2)c1 (single isomer, unassigned) [Example 794] | UniProtKB P14902 | < 50 nM
Cc1ccc(NC(=O)Nc2cc(C(C)CC(=O)O)ccc2N(CC(C)C)C2CCOCC2)cc1 (single isomer, unassigned) [Example 958] | UniProtKB P14902 | < 50 nM

Record summary for CCc1ccc(Nc2cc([C@H](CC)CC(=O)O)ccc2N(CC)C2CCOCC2)cc1 (single isomer, unassigned) [Example 517] : reported IC50 = < 5 nM

Record summary for CCCN(c1ccc([C@@H](COC)CC(=O)O)cc1Nc1ccc(F)cc1)C1CCOCC1 (single isomer, unassigned) [Example 562] : reported IC50 = < 5 nM

Record summary for CC(C)CN(c1ccc(C(C)CC(=O)O)cc1Nc1nc2ccccc2o1)C1CCOCC1 (single isomer, unassigned) [Example 969] : reported IC50 = > 50 nM
